Target: T1, recombinant human Trop-2-his protein (ACCESSION NO.: NP_002344.2, AA 1-274) (human, UniProt P09758 27-274)
T1 construct: range 27-274; also called recombinant human Trop-2 protein; recombinant human Trop-2 extracellular domain; not shown: his tag
T1 sequence (looked up): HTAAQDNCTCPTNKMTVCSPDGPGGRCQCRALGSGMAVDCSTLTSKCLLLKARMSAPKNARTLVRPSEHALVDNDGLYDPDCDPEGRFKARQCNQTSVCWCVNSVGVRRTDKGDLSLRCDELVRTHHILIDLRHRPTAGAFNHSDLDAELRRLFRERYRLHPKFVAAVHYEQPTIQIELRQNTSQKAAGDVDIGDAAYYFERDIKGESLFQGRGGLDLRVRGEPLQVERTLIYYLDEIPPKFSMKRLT
Assay: BLI, antibody on AHC sensor, Trop-2-his 60 nM
ASSAY READOUT: Kd (nM)

BINDER | ASSAY READOUT | QUANTITY UNIT | EXPERIMENTAL VALUE
h23-12-45 (antibody, human IgG1, kappa, V domains shown) VH: QVQLVQSGAEVKKPGASVKVSCKASGYTFTSYWMHWVRQAPGQGLEWMGEITPSDGYTSYNQKFKGRVTITRDTSTSTAYMELSSLRSEDTAVYYCARGHGNYVSFDYWGQGTLVTVSS VL: DIQMTQSPSSLSASVGDRVTITCRASQDISNYLNWYQQKPGKAPKLLIYYTSRLHSGVPSRFSGSGSGTDFTLTISSLQPEDFATYFCQQGYSLPPYTFGQGTKLEIKR | Kd | nM | 4.09
h23-12-48 (antibody, human IgG1, kappa, V domains shown) VH: QVQLVQSGAEVKKPGASVKVSCKASGYTFTSYWMHWVRQAPGQGLEWMGEITPSDNYTSYNQKFKGRVTITRDTSTSTAYMELSSLRSEDTAVYYCARGEGNYVSFDYWGQGTLVTVSS VL: DIQMTQSPSSLSASVGDRVTITCRASQDISNYLNWYQQKPGKAPKLLIYYTSRLHSGVPSRFSGSGSGTDFTLTISSLQPEDFATYFCQQGYSLPPYTFGQGTKLEIKR | Kd | nM | 0.405
h23-12-31 (antibody, human IgG1, kappa, V domains shown) VH: QVQLVQSGAEVKKPGASVKVSCKASGYTFTSYWMHWVRQAPGQGLEWMGEITPSDGYTSYNQKFKGRVTITRDTSTSTAYMELSSLRSEDTAVYYCARGHGNYVSFDYWGQGTLVTVSS VL: DIQMTQSPSSLSASVGDRVTITCRASQDISNYLNWYQQKPGKAPKLLIYYTSRLQSGVPSRFSGSGSGTDFTLTISSLQPEDFATYFCQQGYTLPPYTFGQGTKLEIKR | Kd | nM | 63.9
h23-12-29 (antibody, human IgG1, kappa, V domains shown) VH: QVQLVQSGAEVKKPGASVKVSCKASGYTFTSYWMHWVRQAPGQGLEWMGEITPSDNYTSYNQKFKGRVTITRDTSTSTAYMELSSLRSEDTAVYYCARGHGNYVSFDYWGQGTLVTVSS VL: DIQMTQSPSSLSASVGDRVTITCRASQDISNYLNWYQQKPGKAPKLLIYYTSRLQSGVPSRFSGSGSGTDFTLTISSLQPEDFATYFCQQGYTLPPYTFGQGTKLEIKR | Kd | nM | 6.72
h23-12-23 (antibody, human IgG1, kappa, V domains shown) VH: QVQLVQSGAEVKKPGASVKVSCKASGYTFTSYWMHWVRQAPGQGLEWMGEITPGDNYTSYNQKFKGRVTITRDTSTSTAYMELSSLRSEDTAVYYCARGHGNYVSFDYWGQGTLVTVSS VL: DIQMTQSPSSLSASVGDRVTITCRASQDISNYLNWYQQKPGKAPKLLIYYTSRLESGVPSRFSGSGSGTDFTLTISSLQPEDFATYFCQQGYTLPPYTFGQGTKLEIKR | Kd | nM | 0.77
h23-12-13 (antibody, human IgG1, kappa, V domains shown) VH: QVQLVQSGAEVKKPGASVKVSCKASGYTFTSYWMHWVRQAPGQGLEWMGEITPSDNYTSYNQKFKGRVTITRDTSTSTAYMELSSLRSEDTAVYYCARGEGNYVSFDYWGQGTLVTVSS VL: DIQMTQSPSSLSASVGDRVTITCRASQDISNYLNWYQQKPGKAPKLLIYYASRLHSGVPSRFSGSGSGTDFTLTISSLQPEDFATYFCQQGYTLPPYTFGQGTKLEIKR | Kd | nM | 0.916
h23-12-46 (antibody, human IgG1, kappa, V domains shown) VH: QVQLVQSGAEVKKPGASVKVSCKASGYTFTSYWMHWVRQAPGQGLEWMGEITPSDNYGSYNQKFKGRVTITRDTSTSTAYMELSSLRSEDTAVYYCARGHGNYVSFDYWGQGTLVTVSS VL: DIQMTQSPSSLSASVGDRVTITCRASQDISNYLNWYQQKPGKAPKLLIYYTSRLHSGVPSRFSGSGSGTDFTLTISSLQPEDFATYFCQQGYSLPPYTFGQGTKLEIKR | Kd | nM | 0.312
h23-12-15 (antibody, human IgG1, kappa, V domains shown) VH: QVQLVQSGAEVKKPGASVKVSCKASGYTFTSYWMHWVRQAPGQGLEWMGEITPSDNYTSYNQKFKGRVTITRDTSTSTAYMELSSLRSEDTAVYYCARGHGNYVSFDYWGQGTLVTVSS VL: DIQMTQSPSSLSASVGDRVTITCRASQDISNYLNWYQQKPGKAPKLLIYYTSSLHSGVPSRFSGSGSGTDFTLTISSLQPEDFATYFCQQGYTLPPYTFGQGTKLEIKR | Kd | nM | 1.43
h23-12-10 (antibody, human IgG1, kappa, V domains shown) VH: QVQLVQSGAEVKKPGASVKVSCKASGYTFTSYWMHWVRQAPGQGLEWMGEITPSDGYTSYNQKFKGRVTITRDTSTSTAYMELSSLRSEDTAVYYCARGHGNYVSFDYWGQGTLVTVSS VL: DIQMTQSPSSLSASVGDRVTITCRASQDISNYLNWYQQKPGKAPKLLIYYASRLHSGVPSRFSGSGSGTDFTLTISSLQPEDFATYFCQQGYTLPPYTFGQGTKLEIKR | Kd | nM | 9.62
h23-12-22 (antibody, human IgG1, kappa, V domains shown) VH: QVQLVQSGAEVKKPGASVKVSCKASGYTFTSYWMHWVRQAPGQGLEWMGEITPSDNYTSYNQKFKGRVTITRDTSTSTAYMELSSLRSEDTAVYYCARGHGNYVSFDYWGQGTLVTVSS VL: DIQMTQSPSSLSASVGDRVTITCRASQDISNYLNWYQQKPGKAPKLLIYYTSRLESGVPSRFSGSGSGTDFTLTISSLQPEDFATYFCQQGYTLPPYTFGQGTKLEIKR | Kd | nM | 1.3
